- Tested on: P388 mice T cell leukemia cells
- ASSAY_REMARKS: Cytotoxicity by MTT assay in P388 cells
- Assay type: cell-based, mouse
- CONDITION_INFO: P388 mouse leukemia cells, 37° C., 72 h, 5% CO2
- Method: Cytotoxicity was assessed in P388 mice T cell leukemia cells by MTT [3-(4,5-dimethylthiazol-2-yl)-2,5-diphenyl-2H-tetrazolium bromide] assay. Cell suspension (1×10^5 cells/mL) was plated in 96 well microtiter plates at 50 μL/well and it was followed by 50 μL/well of the test compound in serially diluted concentrations. […] The optical densities of the plates were measured with a microplate reader (BIO-RAD) at 570 nm. The greater the absorbance the greater the number of live cells. […]
Property: IC50; scope: individual compounds

Worked cases, answers included:
COMPOUND	OBSERVATION_TYPE	RESULT
O=C(COCc1ccccc1)OC1C#CCCCCC#C/C1=C\c1cccc2ccccc12 (stereo not shown)	IC50	6.7 µM
COc1ccc(OC)c(C(=O)OC2C#CCCCCC#C/C2=C\c2cccc3ccccc23)c1 (stereo not shown)	IC50	17 µM

Challenge: If you can, please state the reported IC50 value of CC(=O)OC1C#CCCCCC#C/C1=C\c1ccc2ccccc2c1 (stereo not shown) [Compound 30c] .
Response given: 2.8 µM

Challenge: Value lookup for IC50; key = COCC(=O)OC(C1=CC#CCCCCC#C1)c1ccccc1CO[Si](C)(C)C(C)(C)C (stereo not shown)
Response given: 12 µM

The measured values listed here are drawn from patent US6391916B1.
